test system: HCT-116 (colon cancer, CCL-247); experiment: In vitro MTT cytotoxicity assay; assay type: cell-based; conditions: Homo sapiens; HCT-116, 24 h, MTT; read-out: IC50
MEASUREMENT TYPE: IC50 (µM)
Answer in µM, number only, no unit symbol.

Req: API: value(readout=IC50, system=HCT-116 (colon cancer, CCL-247)) for record CSC1(CO)C(=O)N2c3cc([N+](=O)[O-])ccc3CC2(SC)C(=O)N1C (stereo not shown)
Resp: 3.28

###

test system: DU-145 (prostatic cancer, HTB-81); test: In vitro MTT cytotoxicity assay; type: cell-based; settings: Homo sapiens; DU-145, 24 h, MTT; read-out: IC50
MEASUREMENT TYPE: IC50 (nM)
Kindly answer with a numeric value in nM, unit omitted.

Req: What does the data say about its IC50? Entry: CSC1(CO)C(=O)N2c3cc([N+](=O)[O-])ccc3CC2(SC)C(=O)N1C (stereo not shown)
Resp: 2290

Where these numbers come from: patent US20100215620A1
